test system: E. coli MG1655; test: High-throughput screening of FDA-approved drug library for antibiotic adjuvants (growth inhibition, OD600); format: cell-based, Escherichia coli; conditions: library drug alone, LB medium, 96-well, 8 h static culture at 37°C, relative to PMBN (positive) and DMSO (negative) controls, %, table head prints no unit
Please respond with reported Growth inhibition, Compound for every item in the list.
Your answer should be a plain number; it is taken to be in %.

Entry under test: `C[C@@H](O)[C@H]1C(=O)N2C(C(=O)O)=C(S[C@@H]3CN[C@H](CNS(N)(=O)=O)C3)[C@H](C)[C@H]12` . Its Growth inhibition, Compound was 95

Entry under test: CC1(C)S[C@@H]2[C@H](NC(=O)[C@H](C(=O)O)c3ccsc3)C(=O)N2[C@H]1C(=O)O [Ticarcillin disodium] . Its Growth inhibition, Compound was 86

Entry under test: `O=[N+]([O-])c1ccc(O)c2ncccc12` . Its Growth inhibition, Compound was 105

Entry under test: Cc1cc(O)c(C(=O)N[C@@H](C(=O)N[C@@H]2C(=O)N3C(C(=O)O)=C(CSc4nnnn4C)CS[C@H]23)c2ccc(O)cc2)cn1 [Cefpiramide acid] . Its Growth inhibition, Compound was 97

* * *

system: E. coli MG1655; test: High-throughput screening of FDA-approved drug library for antibiotic adjuvants (growth inhibition, OD600); format: cell-based, Escherichia coli; conditions: library drug alone, LB medium, 96-well, 8 h static culture at 37°C, relative to PMBN (positive) and DMSO (negative) controls, %, table head prints no unit
Where a name gives a salt, the structure may show the parent alone.
outcomeMeasure: Growth inhibition, Compound (%)
Your answer should be a plain number; it is taken to be in %.

Entry under test: N[C@@H](C(=O)N[C@@H]1C(=O)N2C(C(=O)O)=C(Cl)CS[C@H]12)c1ccccc1 [Cefaclor monohydrate] . Its Growth inhibition, Compound was 80

Entry under test: `O=C1CN(/N=C/c2ccc([N+](=O)[O-])o2)C(=O)N1` . Its Growth inhibition, Compound was 98

Entry under test: CO[C@H]1/C=C/O[C@@]2(C)Oc3c(C)c(O)c4c([O-])c(cc(O)c4c3C2=O)NC(=O)/C(C)=C\C=C\[C@H](C)[C@H](O)[C@@H](C)[C@@H](O)[C@@H](C)[C@H](OC(C)=O)[C@@H]1C.[Na+] [Rifamycin sodium salt] . Its Growth inhibition, Compound was 25

Entry under test: CO[C@@]1(NC(=O)C(C(=O)O)c2ccc(O)cc2)C(=O)N2C(C(=O)O)=C(CSc3nnnn3C)CO[C@@H]21 (stereo partly shown) [Latamoxef sodium] . Its Growth inhibition, Compound was 94

Entry under test: `C[C@@H]1CN(c2c(F)c(N)c3c(=O)c(C(=O)O)cn(C4CC4)c3c2F)C[C@H](C)N1` . Its Growth inhibition, Compound was 96

Entry under test: `NC[C@H]1O[C@H](O[C@H]2[C@H](O)[C@@H](O[C@H]3O[C@H](CO)[C@@H](O)[C@H](N)[C@H]3O)[C@H](N)C[C@@H]2N)[C@H](N)[C@@H](O)[C@@H]1O` . Its Growth inhibition, Compound was 106

Entry under test: `Oc1c(Cl)cc(Cl)c2cccnc12` . Its Growth inhibition, Compound was 118

Entry under test: CO[C@@]1(NC(=O)CSCC#N)C(=O)N2C(C(=O)O)=C(CSc3nnnn3C)CS[C@@H]21 [Cefmetazole sodium] . Its Growth inhibition, Compound was 96

Entry under test: CN(C)[C@@H]1C(O)=C(C(N)=O)C(=O)[C@@]2(O)C(O)=C3C(=O)c4c(O)cccc4[C@@](C)(O)[C@H]3[C@H](O)[C@@H]12 [Oxytetracycline Hydrochloride] . Its Growth inhibition, Compound was 106

Entry under test: NCC[C@H](O)C(=O)N[C@@H]1C[C@H](N)[C@@H](O[C@H]2O[C@H](CN)[C@@H](O)[C@H](O)[C@H]2O)[C@H](O)[C@H]1O[C@H]1O[C@H](CO)[C@@H](O)[C@H](N)[C@H]1O.O=S(=O)(O)O.O=S(=O)(O)O [Amikacin disulfate] . Its Growth inhibition, Compound was 108

Entry under test: Cc1c(N)nc([C@H](CC(N)=O)NC[C@H](N)C(N)=O)nc1C(=O)N[C@H](C(=O)N[C@H](C)[C@@H](O)[C@H](C)C(=O)N[C@H](C(=O)NCCc1nc(-c2nc(C(=O)NCCC[S+](C)C)cs2)cs1)[C@@H](C)O)[C@@H](O[C@@H]1O[C@@H](CO)[C@@H](O)[C@H](O)[C@@H]1O[C@H]1O[C@H](CO)[C@@H](O)[C@H](OC(N)=O)[C@@H]1O)c1cnc[nH]1.O=S(=O)([O-])O [Bleomycin Sulfate] . Its Growth inhibition, Compound was 110

Entry under test: CC(=O)OCC1=C(C(=O)O)N2C(=O)[C@@H](NC(=O)Cc3cccs3)[C@H]2SC1 [Cephalothin sodium] . Its Growth inhibition, Compound was 79

Entry under test: COc1c(N2CCNC(C)C2)c(F)cc2c(=O)c(C(=O)O)cn(C3CC3)c12 (stereo not shown) . Its Growth inhibition, Compound was 100

Entry under test: CO[C@@]1(NC(=O)C2SC(=C(C(N)=O)C(=O)O)S2)C(=O)N2C(C(=O)O)=C(CSc3nnnn3C)CS[C@@H]21 (stereo partly shown) . Its Growth inhibition, Compound was 97

Entry under test: `CNC[C@H](O)[C@@H](O)[C@H](O)[C@H](O)CO.Nc1nc(-n2cc(C(=O)O)c(=O)c3cc(F)c(N4CC(O)C4)c(Cl)c32)c(F)cc1F` . Its Growth inhibition, Compound was 103

Entry under test: `Cc1cn([C@H]2C[C@H](N=[N+]=[N-])[C@@H](CO)O2)c(=O)[nH]c1=O` . Its Growth inhibition, Compound was 95

Entry under test: C[C@@H](O)[C@H]1C(=O)N2C(C(=O)O)=C(S[C@@H]3CN[C@H](CNS(N)(=O)=O)C3)[C@H](C)[C@H]12.O [Doripenem Hydrate] . Its Growth inhibition, Compound was 77

Entry under test: Nc1nc(/C(=C/CC(=O)O)C(=O)N[C@@H]2C(=O)N3C(C(=O)O)=CCS[C@H]23)cs1.O.O [Ceftibuten dihydrate] . Its Growth inhibition, Compound was 84

Entry under test: CN1C[C@@H]2C[C@H]1CN2c1cc2c(cc1F)c(=O)c(C(=O)O)cn2C1CC1.CS(=O)(=O)O [Danofloxacin mesylate] . Its Growth inhibition, Compound was 100

Entry under test: Nc1nc(F)nc2c1ncn2[C@@H]1O[C@H](COP(=O)(O)O)[C@@H](O)[C@@H]1O [Fludarabine Phosphate] . Its Growth inhibition, Compound was 43

Entry under test: CN[C@@H]1[C@@H](O)[C@@H](O[C@@H]2[C@@H](O)[C@H](O[C@H]3O[C@H]([C@@H](C)NC)CC[C@H]3N)[C@@H](N)C[C@H]2N)OC[C@]1(C)O.O=S(=O)(O)O [Gentamycin sulfate] . Its Growth inhibition, Compound was 110

Entry under test: CN[C@@H]1[C@H](O[C@H]2[C@H](O[C@H]3[C@H](O)[C@@H](O)[C@H](NC(=N)N)[C@@H](O)[C@@H]3NC(=N)N)O[C@@H](C)[C@]2(O)CO)O[C@@H](CO)[C@H](O)[C@H]1O [Dihydrostreptomycin sulfate] . Its Growth inhibition, Compound was 106

Where these numbers come from: paper PMC11358092
